System: FaDu
Assay: Cytotoxicity against human FADU cells assessed as reduction in cell viability incubated for 96 hrs by SRB assay
Assay type: functional, cell-based
EC50 listing for selected molecules.
reported property: EC50

>>> reported("CC(=O)O[C@H]1CC[C@]2(C)[C@H]3CC=C4[C@@H]5CC(C)(C)CC[C@]5(C(=O)NCCNC(=O)CCC5=[N+]6C(=Cc7c(C)cc(C)n7[B-]6(F)F)C=C5)CC[C@@]4(C)[C@]3(C)CC[C@H]2C1(C)C")
"7 µM"
>>> reported("C=C(C)[C@@H]1CC[C@]2(CO)CC[C@]3(C)[C@H](CC[C@@H]4[C@@]5(C)CC[C@H](OC(C)=O)C(C)(C)[C@@H]5CC[C@]43C)[C@@H]12")
"> 30 µM"
>>> reported("CC(=O)O[C@H]1CC[C@]2(C)[C@H]3CC=C4[C@@H]5CC(C)(C)CC[C@]5(C(=O)N5CCN(C(=O)CCC6=[N+]7C(=Cc8c(C)cc(C)n8[B-]7(F)F)C=C6)CC5)CC[C@@]4(C)[C@]3(C)CC[C@H]2C1(C)C")
"> 30 µM"

Where do the numbers come from? From ChEMBL document CHEMBL4373745.
